Give EC50 for every item shown.
# Tested on: HCV replicons (wild type NS3-NS5B regions of HCV type 1b) in Huh-7 luc/neo cells
# experiment-notes: Replicon assay (Huh-Luc cells, luciferase readout)
# Type: cell-based
# cond: Hepatitis C virus, Huh-7, 72 h, incubation of three days, luciferase activity

Exam item: Given the compound COc1cccc(-c2cc(O[C@@H]3C[C@H]4C(=O)N[C@]5(C(=O)NS(=O)(=O)C6CC6)C[C@H]5/C=C\CCCCN(C)C(=O)[C@@H]4C3)nc(OC)n2)c1 [Example 24] , what is its reported EC50?
Marked response: 0.5 to 199 nM

Exam item: Could you share which EC50 value was measured for COc1nc(O[C@@H]2C[C@H]3C(=O)N[C@]4(C(=O)NS(=O)(=O)C5(C)CC5)C[C@H]4/C=C\CCCCCNC(=O)N3C2)cc(-c2ccccc2)n1 [Example 4] ?
Marked response: 200 to 990 nM

Exam item: Report EC50 for CC(C)Nc1nccc(O[C@@H]2C[C@H]3C(=O)N[C@]4(C(=O)NS(=O)(=O)C5CC5)C[C@H]4/C=C\CCCCN(C)C(=O)[C@@H]3C2)n1 [Example 12] please.
Marked response: > 10000 nM

Exam item: May I ask what EC50 has been recorded for COc1nc(O[C@@H]2C[C@H]3C(=O)N[C@]4(C(=O)NS(=O)(=O)C5(C)CC5)C[C@H]4/C=C\CCCCN(C)C(=O)[C@@H]3C2)cc(C(C)(C)C)n1 [Example 5] ?
Marked response: > 10000 nM

Exam item: Any idea what EC50 was measured for CN1CCCCC=CC2CC2(C(=O)NS(=O)(=O)C2CC2)NC(=O)C2CC(Oc3ccnc(-c4ccccc4)n3)CC2C1=O (stereo not drawn) [Example 10] ?
Marked response: > 10000 nM

Exam item: Any idea what EC50 was measured for COc1cc(OC2CC3C(=O)NC4(C(=O)NS(=O)(=O)C5(C)CC5)CC4C=CCCCCN(C)C(=O)C3C2)nc(-c2ccccc2)n1 (stereo not drawn) [Example 7] ?
Marked response: 0.5 to 199 nM

====

Record form. Attribute: EC50. Fill in for each entry.
# Test system: HCV replicons (wild type NS3-NS5B regions of HCV type 1b) in Huh-7 luc/neo cells
# experiment-notes: Replicon assay (Huh-Luc cells, luciferase readout)
# Type: cell-based
# cond: Hepatitis C virus, Huh-7, 72 h, incubation of three days, luciferase activity

Exam item: // EC50 lookup, key: `COc1cccc(-c2cc(O[C@@H]3C[C@H]4C(=O)N[C@]5(C(=O)NS(=O)(=O)C6(C)CC6)C[C@H]5/C=C\CCCCN(C)C(=O)[C@@H]4C3)nc(OC)n2)c1`
Marked response: 0.5 to 199 nM

Exam item: Record request: EC50 value, item COc1nc(OC2CC3C(=O)NC4(C(=O)NS(=O)(=O)C5CC5)CC4C=CCCCCN(C)C(=O)N3C2)cc(-c2ccccc2)n1 (stereo not drawn)
Marked response: 1000 to 10000 nM

Exam item: Give its EC50 value. Item: COc1cc(OC2CC3C(=O)NC4(C(=O)NS(=O)(=O)C5CC5)CC4C=CCCCCCNC(=O)N3C2)nc(-c2ccccc2)n1 (stereo not drawn)
Marked response: 0.5 to 199 nM

Exam item: Fill blank: measured EC50 of the compound COc1nc(OC2CC3C(=O)NC4(C(=O)NS(=O)(=O)C5CC5)CC4C=CCCCCCNC(=O)N3C2)cc(-c2ccccc2)n1 (stereo not drawn) is ____.
Marked response: 1000 to 10000 nM

Exam item: Consider the compound shown here: `CN1CCCC/C=C\[C@@H]2C[C@@]2(C(=O)NS(=O)(=O)C2CC2)NC(=O)[C@@H]2C[C@@H](Oc3ccnc(N4CCOCC4)n3)C[C@H]2C1=O` What is its recorded EC50?
Marked response: > 10000 nM

Exam item: Would you mind telling me what EC50 value was observed for CN1CCCCC=CC2CC2(C(=O)NS(=O)(=O)C2CC2)NC(=O)C2CC(Oc3cc(-c4ccccc4)nc(-c4ccccc4)n3)CC2C1=O (stereo not drawn) ?
Marked response: 200 to 990 nM
